Each recorded value in this set is attributed to PubChem BioAssay (NCI).

test system: BT-549 breast; test: NCI-60 one-dose screen, 48 h; settings: 10 µM unless noted
The panel holds about 83,000 compounds, 20% with a hit somewhere; the sample as a whole holds those more often. Calls of active or inactive are those of the source. Rule for the calls: active = growth percent below 10; inactive = the rest.
Classes used: y (active), n (inactive)

1. NS(=O)(=O)c1ccc(Nc2cc(-c3ccccc3)nc(SCC(=O)c3ccccc3)n2)cc1	n
2. Cc1c(F)cc(C(N)=O)cc1NCC(=O)Nc1ccc([N+](=O)[O-])cc1	n
3. COc1ccc(-n2c(/C=C3\C(=O)Nc4ccccc43)ccc2CO)cc1	n
4. CCNC(=O)Oc1ccc(/C(=C(/C)c2ccccc2)c2ccc(OCCN3CCCCCC3)cc2)cc1	y
5. C#CCOC(=O)[C@@H]1CCCN1CC#C	n
6. COc1ccc(NC(=O)CSc2nnc(-c3ccc4nc(-c5ccc(OC)c(OC)c5)[nH]c4c3)o2)cc1OC	n
7. CC1(C)CC[C@]2(CN)CC[C@]3(C)C(=CC[C@@H]4[C@@]5(C)CCCNC(C)(C)[C@@H]5CC[C@]43C)[C@H]2C1	n
8. COC(=O)/C=C/c1c(C2(C)NC(=O)c3ccccc3N2)c(=O)oc2ccc(Cl)cc12 (centres undefined)	n
9. COc1ccc([C@@H]2c3[nH]c4ccccc4c3C[C@H]3C(=O)N(C4CCN(CC5CCCCC5)CC4)CC(=O)N23)c(OC)c1	n

---

compounds and their reported growth
Tested on: SN12C renal
Assay: NCI-60 one-dose screen, 48 h (100 = growth as untreated, 0 = no growth, -100 = all killed)
Details: 10 µM unless noted
Protocol: Growth inhibition of the SN12C human tumor cell line is measured as a screen for anti-cancer activity. Cells are grown in 96 well plates and exposed to the test compound for 48 hours. Compounds are tested at a single concentration, which is 10^-5 M for most compounds. The reported endpoint is percent growth (GI% or GIPRCNT), where numbers from 0 - 100% represent growth inhibition, and numbers from -100% - 0 represent cell death. For example, a value of 40 represents 60% growth inhibition. […]
The panel holds about 83,000 compounds, 20% with a hit somewhere; the sample as a whole holds those more often.
measured.endpoint: growth (%)

1. Nc1nc(-c2cccc([N+](=O)[O-])c2)c(N=Nc2ccccc2)s1	71
2. NC(N)=Nc1ccc(Oc2cccc(NC(N)=Nc3ccc(Cl)c(C(F)(F)F)c3)c2)cn1	25.2
3. O=S(=O)(NCCCNc1nccc(-c2[nH]c(-c3ccccc3)nc2-c2ccc(Cl)c(O)c2)n1)c1ccc(Br)cc1	37.5
4. CCCn1cnc2c(c1=N)C(c1ccc(Cl)cc1)c1sc3c(C)cccc3c1O2 (stereo not given)	17.9
5. CC(Nc1c(C#N)cnc2ccc(-c3cnc(N)nc3)cc12)c1ccccc1 (stereo not given)	14.7

---

system: UACC-62 melanoma; test: NCI-60 one-dose screen, 48 h (100 = growth as untreated, 0 = no growth, -100 = all killed); details: 10 µM unless noted
The panel holds about 83,000 compounds, 20% with a hit somewhere; the sample as a whole holds those more often.
Hi, to clarify the labels: rule met covers growth from 80% upward, rule not met covers anything below 80%.

1) O=C(CN1CCN(c2cc(=O)[nH]c3ccc(F)cc23)CC1)Nc1ccc(Cl)cc1	rule not met
2) CC1=CC(=O)C2=C(C)CC(OC(=O)CCc3ccccc3)[C@@H]3[C@H](OC(=O)[C@@H]3C)[C@@H]12 (stereo partly drawn)	rule not met
3) O=S(=O)(NCCNc1nccc(-n2cnc3ccccc32)n1)c1ccc(Cl)cc1	rule met
4) Cc1occc1-c1nc2s/c(=C/c3ccc(-c4cc(C(F)(F)F)ccc4Cl)o3)c(=O)n2n1	rule met
5) CCN(CC)c1ccc(NC2=C(Cl)C(=O)c3nc(C)ccc3C2=O)cc1	rule met
6) Nc1nc(Nc2ccccc2SSc2ccccc2Nc2nc(N)nc(-c3cccc(Br)c3)n2)nc(-c2cccc(Br)c2)n1	rule met
7) CC(C)(C)c1ccc(C(=O)Nc2sc3c(c2C(N)=O)CC/C(=N\O)C3)cc1	rule not met
8) CS(=O)(=O)Nc1cc(-c2ccc3ncc(C#N)c(NCc4ccccc4)c3c2)cnc1Cl	rule not met
9) COc1ccccc1-n1cc(C#N)c(N)c1C(=O)c1ccc(Cl)cc1	rule not met
10) C#CC(=O)N(c1ccc(OC)cc1OC)C(C(=O)NCC(=O)OCC)c1cccs1 (stereo not drawn)	rule met
11) COc1cccc2c1CN(C(=O)c1ccc(O)c(C(=O)N3Cc4ccc(OCCC[P+](c5ccccc5)(c5ccccc5)c5ccccc5)cc4C3)c1)C2	rule not met
12) Cc1cc2ncc(-c3cc4ccccc4c(N4CCN(C)CC4)n3)nc2cc1C	rule not met
13) COc1ccc(/C(N)=N/C(N)=N/c2nc3ccccc3s2)cc1	rule not met
14) C=C(C)[C@@H]1CC[C@]2(C(=O)NCCCCCN(CCC#N)CCC#N)CC[C@]3(C)[C@H](CC[C@@H]4[C@@]5(C)CCC(=O)C(C)(C)[C@@H]5CC[C@]43C)[C@@H]12	rule met
15) CCCCCc1ccc(S(=O)(=O)Nc2cccc(-c3csc(NCCN4CCN(C)CC4)n3)c2)cc1	rule met
16) COc1cccc(O)c1/C=C(/C)c1ccc2c(OC)cccc2[o+]1	rule met
17) CCN(CC)CCn1c2ccc(O)cc2c2sc3cc(OC)ccc3c(=O)c21	rule not met
18) COc1ccc([C@H]2[C@H](O)C(=O)N2c2cc(OC)c(OC)c(OC)c2)cc1F	rule not met

---

Tested on: CCRF-CEM leukemia
Test: NCI-60 one-dose screen, 48 h (100 = growth as untreated, 0 = no growth, -100 = all killed)
Conditions: 10 µM unless noted
Description: Growth inhibition of the CCRF-CEM human tumor cell line is measured as a screen for anti-cancer activity. Cells are grown in 96 well plates and exposed to the test compound for 48 hours. Compounds are tested at a single concentration, which is 10^-5 M for most compounds. The reported endpoint is percent growth (GI% or GIPRCNT), where numbers from 0 - 100% represent growth inhibition, and numbers from -100% - 0 represent cell death. For example, a value of 40 represents 60% growth inhibition. […]
The panel holds about 83,000 compounds, 20% with a hit somewhere; the sample as a whole holds those more often.
measured.endpoint: growth (%)

1. COc1ccc2[nH]cc(/C=N/Nc3nc4ccccc4s3)c2c1	47.3
2. CC(=O)c1ccc(Nc2nc(SCC(C)C)nc(-c3ccc(F)cc3)c2C#N)cc1	107
3. Nc1ccccc1NC(=O)c1ccc(NC(=O)C/C=C/c2cccnc2)cn1	15.8
4. NC(N)=Nc1ccc(Oc2cccc(NC(N)=Nc3ccc(Cl)c(C(F)(F)F)c3)c2)cn1	23.9
5. COc1cc(/C=C2\C(=O)Nc3ccccc32)ccc1OCc1ccc(Cl)cc1	94.9
6. Cc1ccc(-c2nnc(SCc3ccc(O)c4ncccc34)o2)cc1	12.3

---

Measured growth values are reported for all entries that follow.
tested on: OVCAR-5 ovarian; test: NCI-60 one-dose screen, 48 h (100 = growth as untreated, 0 = no growth, -100 = all killed); conditions: 10 µM unless noted
About 83,000 compounds went through this panel and 20% of them were active in at least one assay; those are over-represented in the sample as a whole.
measured.endpoint: growth (%)

1) O=C(c1ccc(O)cc1)[C@@H]1CN[C@@]2(C(=O)Nc3ccccc32)[C@H]1c1ccc(F)cc1	104
2) CCCn1cnc2c(c1=N)C(c1ccc(F)cc1)c1sc3c(C)cccc3c1O2 (centres undefined)	42.4
3) CC[C@@H](CO)Nc1ccc2ncc(C#Cc3cncc(C(=O)Nc4ccc(CN5CCN(C)CC5)c(C(F)(F)F)c4)c3)n2n1	-14
4) COc1cc(-c2nn(C(C)(C)C)cc2-c2ccnc(NCCCNS(=O)(=O)c3cccc(F)c3)n2)ccc1Cl	80.5
5) O=C(CN1CCN(c2cc(=O)[nH]c3ccc(F)cc23)CC1)Nc1ccc(Cl)cc1	86.2
6) Cc1ccc(S(=O)(=O)N(CC[C@@H]2C[C@H]2c2cc3ccccc3o2)S(=O)(=O)c2ccc(C)cc2)cc1	98
7) O=c1[nH]c(Sc2sc3ccc(Cl)cc3c2CBr)nc(=S)[nH]1	49.3
8) CC(=O)N1N=C(c2cccc(-n3cccc3)c2)CC1c1cccc(F)c1 (centres undefined)	95.8
9) NC(N)=Nc1ccc(Oc2cccc(Nc3ccc(Cl)c(C(F)(F)F)c3)c2)cc1	58.8
10) CC(C)C[C@@H]1N[C@@]2(C(=O)Nc3ccccc32)[C@@H](c2ccc(F)cc2)[C@@H]1C(=O)c1ccc(O)cc1	95.6
11) COc1cc2nc(Cl)nc(Nc3cccc(C4=Nc5c(N)nc(N)nc5NC(c5ccc(Cl)cc5)C4)c3)c2cc1OC (centres undefined)	114
12) COc1cc2nc(Cl)nc(Nc3cccc(C4=Nc5c(N)nc(N)nc5NC(c5ccc(F)cc5)C4)c3)c2cc1OC (centres undefined)	107
13) Cc1ccc(-c2nnc(SCc3ccc(O)c4ncccc34)o2)cc1	58.2
14) C=C=COc1cccc(/C(N)=N/C(N)=N/c2nc3ccccc3s2)c1	83.4
15) CCn1c(SCC(=O)Nc2cccc(C(=O)/C=C/c3ccccc3Cl)c2)nc2ccccc2c1=O	97.7
16) COc1cc(Cn2cc3c(c2)-c2onc(CN4CCCC4)c2CC3)cc(OC)c1OC	99
17) COc1ccc(/C=C(\C#N)C(=O)N2c3ccccc3Sc3ccc(SC)cc32)cc1F	86.5
18) COc1cc2oc(-c3cccc(N)c3)cc(=O)c2c(OC)c1OC	101
19) COc1ccc2[nH]cc(-c3csc4nc(-c5ccccc5)cn34)c2c1	46.2
